Assay: Lymphocyte Viability Assay (LCV)
Format: cell-based, murine
Conditions: mouse, splenocytes, 0.005 μg/ml; read-out: % LCV (percentage of positive control)
Description: II. Lymphocyte Viability Assay 1. Compounds were similarly tested in parallel with the MLR to determine their toxic effects on lymphoid cells using the lymphocyte viability assay (LCV). 2. […] 7. Values were obtained by comparing the optical densities (determined at 570 and 650 nm) of wells containing the test compounds with those of wells containing cells and medium only (positive control). The results are expressed as a percentage of the positive control. […]
REPORTED_PROPERTY: viability (%)
Dear colleague, please return just the value in %, with no unit written.

## Input Please report the recorded viability for C#CC(O)CCCCCCCCCCCCCCCC (stereo not shown) .
## Output 65

----------
Kindly supply the reported activity at 0.2 µg/mL values for the records listed here.
Tested on: murine splenocyte suspensions (BALB/c and C57BL/6J mice)
Assay: Mixed Lymphocyte Reaction (MLR)
Assay type: cell-based
Conditions: Mus musculus, Splenocyte; 0.2 μg/ml; read-out: % MLR (percentage of positive control)
Protocol: I. Mixed Lymphocyte Reaction 1. Murine splenocyte suspensions were prepared separately from BALB/c and C57BL/6J mice. […] The cell concentrations were adjusted to 2.5×10^6 cells/ml. Aliquots of each cell population were removed to separate tubes, and the remaining two cell suspensions combined to one tube. 2. […] 7. The amount of incorporated ^3 H-thymidine was determined by counting the vials in a liquid scintillation counter. […]
Dear colleague, please return just the value in %, with no unit written.

## Input Please report the recorded activity at 0.2 µg/mL for CCCCCCCCCCCCCCCC=O .
## Output 94

## Input Please report the recorded activity at 0.2 µg/mL for CC#CC(O)/C=C/CCCCCCCCCCCCCCC (stereo not drawn) .
## Output 143

## Input Please report the recorded activity at 0.2 µg/mL for CCCCCCCCCCCCCCCCO .
## Output 128

## Input Please report the recorded activity at 0.2 µg/mL for C#CC(C)(O)/C=C/CCCCCCCCCCCCCCC (stereo not drawn) .
## Output 161

## Input Please report the recorded activity at 0.2 µg/mL for C#CC(/C=C/CCCCCCCCCCCCCCC)OC(C)=O (stereo not drawn) .
## Output 0

## Input Please report the recorded activity at 0.2 µg/mL for C#CC(O)CCCCCCCCCCCCCCCCC (stereo not drawn) .
## Output 0

## Input Please report the recorded activity at 0.2 µg/mL for CCCCCCCCCCCCCCC/C=C/C(O)C#N (stereo not drawn) .
## Output 89

## Input Please report the recorded activity at 0.2 µg/mL for CCCCCCCCCCCCCCC/C=C/C=O .
## Output 105

## Input Please report the recorded activity at 0.2 µg/mL for C#CC(O)/C=C/CCCCCCCCCCCCCCC (stereo not drawn) .
## Output 0

----------
Assay: Lymphocyte Viability Assay (LCV)
Type: cell-based, murine
Conditions: mouse, splenocytes, 3.1 μg/ml; read-out: % LCV (percentage of positive control)
Description: II. Lymphocyte Viability Assay 1. Compounds were similarly tested in parallel with the MLR to determine their toxic effects on lymphoid cells using the lymphocyte viability assay (LCV). 2. […] 7. Values were obtained by comparing the optical densities (determined at 570 and 650 nm) of wells containing the test compounds with those of wells containing cells and medium only (positive control). The results are expressed as a percentage of the positive control. […]
Label class 1 when viability < 60%; otherwise class 0.

## Input State whether 60% exceeds viability recorded for CCCCCCCCCCCCCCC/C=C/C=O .
## Output class 0

## Input State whether 60% exceeds viability recorded for CCCCCCCCCCCCCCCCO .
## Output class 0

## Input State whether 60% exceeds viability recorded for C#CC(O)CCCCCCCCCCCCCCCCC (centres unmarked) .
## Output class 1

## Input State whether 60% exceeds viability recorded for C#CC(/C=C/CCCCCCCCCCCCCCC)OC(C)=O (centres unmarked) .
## Output class 1

## Input State whether 60% exceeds viability recorded for C#CC(O)/C=C/CCCCCCCCCCCCCCC (centres unmarked) .
## Output class 1
